Target chain: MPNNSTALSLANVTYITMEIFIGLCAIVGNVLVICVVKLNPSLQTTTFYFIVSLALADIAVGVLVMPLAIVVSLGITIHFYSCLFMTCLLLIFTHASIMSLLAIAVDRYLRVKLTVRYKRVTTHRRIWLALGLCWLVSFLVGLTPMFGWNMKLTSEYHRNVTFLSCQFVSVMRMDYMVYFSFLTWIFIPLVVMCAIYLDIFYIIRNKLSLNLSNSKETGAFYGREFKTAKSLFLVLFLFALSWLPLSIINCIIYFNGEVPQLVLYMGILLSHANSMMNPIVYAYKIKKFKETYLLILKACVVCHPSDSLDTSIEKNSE
For each entry below, report its pKi value.
pKi (log units): -log10 of the concentration in mol/L.

Write down pKi measured for item CCn1nnc([C@H]2O[C@@H](n3cnc4c(N)nc(N(C)C)nc43)[C@H](O)[C@@H]2O)n1
6.91

Write down pKi measured for item CCn1nnc([C@H]2O[C@@H](n3cnc4c(N)nc(NC(C)Cc5cccc(OC)c5)nc43)[C@H](O)[C@@H]2O)n1 (mixture of isomers)
7.12

Write down pKi measured for item CCn1nnc([C@H]2O[C@@H](n3cnc4c(N)nc(NC(C)Cc5ccc(Br)cc5)nc43)[C@H](O)[C@@H]2O)n1 (mixture of isomers)
6.64

Write down pKi measured for item CCn1nnc([C@H]2O[C@@H](n3cnc4c(N)nc(NC(C)Cc5ccc(F)cc5)nc43)[C@H](O)[C@@H]2O)n1 (mixture of isomers)
7.39

Write down pKi measured for item CCn1nnc([C@H]2O[C@@H](n3cnc4c(N)nc(N[C@@H](C)Cc5ccc(OC)cc5)nc43)[C@H](O)[C@@H]2O)n1
7.64

---

Target: Adenosine receptor A2a (Homo sapiens, UniProt P29274)
Sequence (P29274 whole entry): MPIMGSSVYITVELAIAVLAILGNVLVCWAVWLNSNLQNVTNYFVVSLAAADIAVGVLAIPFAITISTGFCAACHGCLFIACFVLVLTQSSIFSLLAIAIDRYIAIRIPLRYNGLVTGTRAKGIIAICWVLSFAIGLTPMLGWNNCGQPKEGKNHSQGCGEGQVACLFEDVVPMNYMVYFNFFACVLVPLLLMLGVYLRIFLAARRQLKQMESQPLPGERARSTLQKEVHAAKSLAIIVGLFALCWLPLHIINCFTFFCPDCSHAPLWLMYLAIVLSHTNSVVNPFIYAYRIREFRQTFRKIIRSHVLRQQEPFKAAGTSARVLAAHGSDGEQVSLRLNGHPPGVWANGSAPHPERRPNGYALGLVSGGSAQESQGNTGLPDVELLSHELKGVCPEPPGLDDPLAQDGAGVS
Assay: Agonist activity at human recombinant adenosine A2A receptor expressed in CHO cells assessed as stimulation of NECA-mediated cAMP accumulation preincubated for 15 mins followed by NECA addition measured after 15 mins by enzyme immunoassay
pEC50: −log10 of the molar value.
Rule: y for pEC50 not less than 8, n for anything less.

Is it the case that CCn1nnc([C@H]2O[C@@H](n3cnc4c(N)nc(NC(C)Cc5ccc(C(F)(F)F)cc5)nc43)[C@H](O)[C@@H]2O)n1 (mixture of isomers) has pEC50 reaching or exceeding 8?
n

Is it the case that CCn1nnc([C@H]2O[C@@H](n3cnc4c(N)nc(N[C@H](C)Cc5ccc(OC)cc5)nc43)[C@H](O)[C@@H]2O)n1 has pEC50 reaching or exceeding 8?
y

Is it the case that CCn1nnc([C@H]2O[C@@H](n3cnc4c(N)nc(NC(C)Cc5ccc(Br)cc5)nc43)[C@H](O)[C@@H]2O)n1 (mixture of isomers) has pEC50 reaching or exceeding 8?
n

Is it the case that CCn1nnc([C@H]2O[C@@H](n3cnc4c(N)nc(NC(C)Cc5ccc(OC)cc5)nc43)[C@H](O)[C@@H]2O)n1 (mixture of isomers) has pEC50 reaching or exceeding 8?
y

Is it the case that CCn1nnc([C@H]2O[C@@H](n3cnc4c(N)nc(NC(C)Cc5ccccc5)nc43)[C@H](O)[C@@H]2O)n1 (mixture of isomers) has pEC50 reaching or exceeding 8?
y

Is it the case that CC(Cc1ccccc1)Nc1nc(N)c2ncn([C@@H]3O[C@H](CO)[C@@H](O)[C@H]3O)c2n1 (some centres undefined) has pEC50 reaching or exceeding 8?
n

---

// endpoint pKi / system Adenosine receptor A2a (Homo sapiens)
pKi (log units): -log10 of the concentration in mol/L.

Write down pKi measured for item CCn1nnc([C@H]2O[C@@H](n3cnc4c(N)nc(NC(C)Cc5ccc(Cl)cc5)nc43)[C@H](O)[C@@H]2O)n1 (mixture of isomers)
7.79

Write down pKi measured for item CCn1nnc([C@H]2O[C@@H](n3cnc4c(N)nc(NC(C)Cc5ccc(Br)cc5)nc43)[C@H](O)[C@@H]2O)n1 (mixture of isomers)
8.16

Write down pKi measured for item CCn1nnc([C@H]2O[C@@H](n3cnc4c(N)nc(Cl)nc43)[C@H](O)[C@@H]2O)n1
6.59

Write down pKi measured for item CCn1nnc([C@H]2O[C@@H](n3cnc4c(N)nc(N[C@@H](C)Cc5ccc(OC)cc5)nc43)[C@H](O)[C@@H]2O)n1
7.25

Write down pKi measured for item CCn1nnc([C@H]2O[C@@H](n3cnc4c(N)nc(NC(C)Cc5ccc(C(F)(F)F)cc5)nc43)[C@H](O)[C@@H]2O)n1 (mixture of isomers)
7.79

Write down pKi measured for item CCn1nnc([C@H]2O[C@@H](n3cnc4c(N)nc(NC(C)Cc5ccc(OC)cc5)nc43)[C@H](O)[C@@H]2O)n1 (mixture of isomers)
8.19

Write down pKi measured for item CCn1nnc([C@H]2O[C@@H](n3cnc4c(N)nc(NC(C)Cc5cccc(OC)c5)nc43)[C@H](O)[C@@H]2O)n1 (mixture of isomers)
7.68

---

// endpoint Ki / system Adenosine receptor A3 (Homo sapiens, UniProt P0DMS8)
Numeric only. Scale: nM

# return Ki of CC(Cc1ccccc1)Nc1nc(N)c2ncn([C@@H]3O[C@H](CO)[C@@H](O)[C@H]3O)c2n1 (some centres undefined) (system: Adenosine receptor A3 (Homo sapiens, UniProt P0DMS8))
1220

# return Ki of CCn1nnc([C@H]2O[C@@H](n3cnc4c(N)nc(NC(C)Cc5ccc(OC)cc5)nc43)[C@H](O)[C@@H]2O)n1 (mixture of isomers) (system: Adenosine receptor A3 (Homo sapiens, UniProt P0DMS8))
122

# return Ki of CCn1nnc([C@H]2O[C@@H](n3cnc4c(N)nc(NC(C)Cc5ccc(Cl)cc5)nc43)[C@H](O)[C@@H]2O)n1 (mixture of isomers) (system: Adenosine receptor A3 (Homo sapiens, UniProt P0DMS8))
55.6

# return Ki of CCn1nnc([C@H]2O[C@@H](n3cnc4c(N)nc(N[C@H](C)Cc5ccccc5)nc43)[C@H](O)[C@@H]2O)n1 (system: Adenosine receptor A3 (Homo sapiens, UniProt P0DMS8))
121

---

For each entry below, report its inhibition value.
Molecular target: UniProtKB P30542
Sequence (P30542 whole entry): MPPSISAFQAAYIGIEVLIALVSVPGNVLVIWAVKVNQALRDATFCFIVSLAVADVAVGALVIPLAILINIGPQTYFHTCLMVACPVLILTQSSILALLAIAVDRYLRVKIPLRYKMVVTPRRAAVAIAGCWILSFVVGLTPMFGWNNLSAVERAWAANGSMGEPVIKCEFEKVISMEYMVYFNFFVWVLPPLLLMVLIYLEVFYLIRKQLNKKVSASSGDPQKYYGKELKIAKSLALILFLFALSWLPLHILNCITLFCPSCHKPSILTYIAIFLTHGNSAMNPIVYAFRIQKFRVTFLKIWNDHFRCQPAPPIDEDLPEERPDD
Experiment: Displacement of [3H]-DPCPX from human adenosine A1 receptor expressed in CHO cells at 10 uM after 60 mins by liquid scintillation counting analysis
Type: cell-based
Numeric only. Scale: %

Write down inhibition measured for item CCn1nnc([C@H]2O[C@@H](n3cnc4c(N)nc(N[C@H](C)Cc5ccc(Br)cc5)nc43)[C@H](O)[C@@H]2O)n1
59

Write down inhibition measured for item CCn1nnc([C@H]2O[C@@H](n3cnc4c(N)nc(NC(C)Cc5ccc(C(F)(F)F)cc5)nc43)[C@H](O)[C@@H]2O)n1 (mixture of isomers)
56

Write down inhibition measured for item CC(Cc1ccccc1)Nc1nc(N)c2ncn([C@@H]3O[C@H](CO)[C@@H](O)[C@H]3O)c2n1 (stereo partly specified)
27

Write down inhibition measured for item CCn1nnc([C@H]2O[C@@H](n3cnc4c(N)nc(NC(C)Cc5cccc(OC)c5)nc43)[C@H](O)[C@@H]2O)n1 (mixture of isomers)
45

Write down inhibition measured for item CCn1nnc([C@H]2O[C@@H](n3cnc4c(N)nc(NC(C)Cc5ccc(F)cc5)nc43)[C@H](O)[C@@H]2O)n1 (mixture of isomers)
54

Write down inhibition measured for item CCn1nnc([C@H]2O[C@@H](n3cnc4c(N)nc(N[C@H](C)Cc5ccccc5)nc43)[C@H](O)[C@@H]2O)n1
56

---

Test system: CHO
Assay: Selectivity ratio of Ki for human adenosine A1 receptor expressed in CHO cells to Ki for human adenosine A2A receptor expressed in HeLa cells
Type: cell-based
Rule: condition met for Ratio Ki not less than 50, condition not met for anything less.

Is it the case that CCn1nnc([C@H]2O[C@@H](n3cnc4c(N)nc(N[C@@H](C)Cc5ccc(OC)cc5)nc43)[C@H](O)[C@@H]2O)n1 has Ratio Ki reaching or exceeding 50?
condition not met

Is it the case that CCn1nnc([C@H]2O[C@@H](n3cnc4c(N)nc(N(C)C)nc43)[C@H](O)[C@@H]2O)n1 has Ratio Ki reaching or exceeding 50?
condition not met

Is it the case that CCn1nnc([C@H]2O[C@@H](n3cnc4c(N)nc(N[C@H](C)Cc5ccc(OC)cc5)nc43)[C@H](O)[C@@H]2O)n1 has Ratio Ki reaching or exceeding 50?
condition met

Is it the case that CCn1nnc([C@H]2O[C@@H](n3cnc4c(N)nc(NC(C)Cc5ccc(Cl)cc5)nc43)[C@H](O)[C@@H]2O)n1 (mixture of isomers) has Ratio Ki reaching or exceeding 50?
condition met

Is it the case that CCn1nnc([C@H]2O[C@@H](n3cnc4c(N)nc(NC(C)Cc5ccc(Br)cc5)nc43)[C@H](O)[C@@H]2O)n1 (mixture of isomers) has Ratio Ki reaching or exceeding 50?
condition met

Is it the case that CCn1nnc([C@H]2O[C@@H](n3cnc4c(N)nc(Cl)nc43)[C@H](O)[C@@H]2O)n1 has Ratio Ki reaching or exceeding 50?
condition not met

Is it the case that CCn1nnc([C@H]2O[C@@H](n3cnc4c(N)nc(NC(C)Cc5ccc(OC)cc5)nc43)[C@H](O)[C@@H]2O)n1 (mixture of isomers) has Ratio Ki reaching or exceeding 50?
condition met

Is it the case that CCn1nnc([C@H]2O[C@@H](n3cnc4c(N)nc(NC(C)Cc5ccccc5)nc43)[C@H](O)[C@@H]2O)n1 (mixture of isomers) has Ratio Ki reaching or exceeding 50?
condition met
